Kindly supply the reported GI50 values for the records listed here.
Test system: Ba/F3 cells expressing EGFR Del19/C797S (EGFR DC)
Experiment: Proliferation inhibitory activity, Ba/F3 cells expressing EGFR Del19/C797S (CellTiter-Glo)
Format: cell-based
Settings: Mus musculus, BaF3, 72 hours of compound treatment
Procedure: The following experiments were performed to evaluate the inhibitory activity of the compounds according to the present disclosure on Ba/F3 proliferation expressing EGFR C797S, L861Q, G719A, S768I, L718Q, and/or G724S mutations. […] At 24 hours before treatment with the compounds, 3000 to 5000 cells were aliquoted into each well of a white clear bottom 96 well plate (Corning). […] Result values were calculated as the cell growth rate (%) compared to the control. […]

Below, each entry is followed by its recorded GI50 result.
COc1cc(N2CCC(N3CCN(C)CC3)CC2)ccc1Nc1cc(N2OCC[C@@H]2c2cccc(F)c2F)ncn1 : < 50 nM
COc1cc2c(cc1Nc1cc(N3OCC[C@@H]3c3cccc(F)c3F)ncn1)C(=O)N(C)C2 : 50 to 500 nM
COc1cc(N2CCC3(CC2)CC(N(C)C)C3)c(C)cc1Nc1cc(N2OCC[C@@H]2c2ccccc2)ncn1 : < 50 nM
COc1cc(N2CCC(N3CCN(C)CC3)CC2)ccc1Nc1ncnc(N2OCC[C@@H]2c2ccccc2)n1 : 50 to 500 nM
COc1cc(N2CCCN(C)CC2)ccc1Nc1cc(N2OCC[C@@H]2c2ccccc2)ncn1 : < 50 nM

Items follow; give GI50 for each.
1. COc1cc(N2CCC(N3CCN(C)CC3)CC2)ccc1Nc1cc(N2OCC[C@@H]2c2ccc3ccccc3c2)ncn1
2. COc1cc(Nc2cc(N3OCC[C@@H]3c3ccc(Cl)cc3F)ncn2)ccc1N1CCC(N2CCN(C)CC2)CC1

Response given:
["50 to 500 nM", "< 50 nM"]

----------
tested on: Ba/F3 cells expressing EGFR Del19/C797S (EGFR DC); assay: Proliferation inhibitory activity, Ba/F3 cells expressing EGFR Del19/C797S (CellTiter-Glo); assay type: cell-based; conditions: Mus musculus, BaF3, 72 hours of compound treatment
Give measured GI50 for each item. Keep answers brief.

// below: answered compounds
COc1cc2c(cc1Nc1cc(N3OCC[C@@H]3c3ccccc3)ncn1)OC[C@H]1C[C@@H](N3CCN(C4CC4)CC3)CCN21 [Example 49] : < 50 nM
COc1cc(N2CCC(N3CCN(C4CC4)C(C)(C)C3)CC2)ccc1Nc1cc(N2OCC[C@@H]2c2ccccc2)ncn1 [Example 61] : < 50 nM
COc1cc(N2CCC(N3CCN(C)CC3)CC2)ccc1Nc1cc(N2OCC[C@@H]2c2ccc(F)c(Cl)c2F)ncn1 [Example 130] : 50 to 500 nM
CN1CCN(c2ccc(Nc3cc(N4OCC[C@@H]4Cc4ccccc4)ncn3)cc2)CC1 [Example 3] : < 50 nM
CN1CCN(C2CCN(c3cc(OCC(F)(F)F)c(Nc4cc(N5OCC[C@@H]5c5ccccc5)ncn4)cc3-c3cnn(C)c3)CC2)CC1 [Example 164] : < 50 nM

Please report GI50 for every entry that follows.
1. c1ccc([C@H]2CCON2c2cc(Nc3ccc(N4CCNCC4)cc3)ncn2)cc1 [Example 77]
2. COc1cc(N2CCC(N3CCN(C(C)C)CC3)CC2)ccc1Nc1cc(N2OCC[C@@H]2c2cccc(F)c2F)ncn1 [Example 222]
3. Fc1ncc(N2C[C@@H]3C[C@H]2CO3)cc1Nc1cc(N2OCC[C@@H]2c2ccccc2)ncn1 [Example 74]
4. C=CCN1CCN(c2ccc(Nc3cc(N4OCC[C@@H]4c4ccccc4)ncn3)cc2)CC1 [Example 68]

Response given:
< 50 nM
< 50 nM
< 50 nM
< 50 nM

----------
Please respond with reported GI50 for every item in the list.
Tested on: Ba/F3 cells expressing EGFR Del19/C797S (EGFR DC)
Test: Proliferation inhibitory activity, Ba/F3 cells expressing EGFR Del19/C797S (CellTiter-Glo)
Type: cell-based
Details: Mus musculus, BaF3, 72 hours of compound treatment
Method: The following experiments were performed to evaluate the inhibitory activity of the compounds according to the present disclosure on Ba/F3 proliferation expressing EGFR C797S, L861Q, G719A, S768I, L718Q, and/or G724S mutations. […] At 24 hours before treatment with the compounds, 3000 to 5000 cells were aliquoted into each well of a white clear bottom 96 well plate (Corning). […] Result values were calculated as the cell growth rate (%) compared to the control. […]

COc1cc(N2CCC(N3CCN(C)CC3)CC2)ccc1Nc1cc(N2OCC[C@@H]2c2cccs2)ncn1 [Example 35] : < 50 nM
Fc1cc(F)cc([C@H]2CCON2c2cc(Nc3cccc4c3OCC4)ncn2)c1 [Example 159] : 50 to 500 nM

Proceeding to the next compound to report its GI50.
Challenge: Please look up its GI50: COc1cc(N2CCC(N3CCC(N4CCN(C5CC5)CC4)CC3)CC2)ccc1Nc1cc(N2OCC[C@@H]2c2ccccc2)ncn1 [Example 63]
Response given: < 50 nM

----------
system: Ba/F3 cells expressing EGFR Del19/C797S (EGFR DC); test: Proliferation inhibitory activity, Ba/F3 cells expressing EGFR Del19/C797S (CellTiter-Glo); type: cell-based; conditions: Mus musculus, BaF3, 72 hours of compound treatment
Kindly state GI50 for each of the entries shown.

// worked examples, GI50 included
COc1cc(OCCN(C)C)ccc1Nc1cc(N2OCC[C@@H]2c2ccccc2)ncn1 : < 50 nM
CN(C)C1CCN(C2CCN(c3ccc(Nc4cc(N5OCC[C@@H]5c5ccccc5)ncn4)cc3)CC2)CC1 : < 50 nM

Please give GI50, item by item, for the list that follows.
1. COc1cc(Nc2cc(N3OCC[C@@H]3c3cc(F)ccc3F)ncn2)ccc1N1CCC(N2CCN(C)CC2)CC1
2. COc1cc(N2CCC(N3CCN(C)CC3)CC2)ccc1Nc1cc(N2OCC[C@@H]2c2cccc(F)c2)ncn1
3. Cn1cc(-c2cc(Nc3cc(N4OCC[C@@H]4c4ccccc4)ncn3)c(OCC(F)(F)F)cc2N2CCOCC2)cn1
4. CCN1C2CC1CN(C1CCN(c3ccc(Nc4cc(N5OCC[C@@H]5c5cccc(F)c5F)ncn4)c(OC)c3)CC1)C2
5. Cc1cc(Nc2cc(N3OCC[C@@H]3c3cc(F)ccc3F)ncn2)ccc1N1CCC(N2CCN(C)CC2)CC1

Response given:
< 50 nM
< 50 nM
< 50 nM
< 50 nM
< 50 nM

----------
tested on: Ba/F3 cells expressing EGFR L858R/C797S (EGFR LC); test: Proliferation inhibitory activity, Ba/F3 cells expressing EGFR L858R/C797S (CellTiter-Glo); assay type: cell-based; conditions: Mus musculus, BaF3, 72 hours of compound treatment
Would you mind telling me the reported GI50 of each entry?

Sample records with GI50:
Cc1cc(Nc2cc(N3OCC[C@@H]3c3ccc(F)cc3F)ncn2)ccc1N1CCC(N2CCN(C)CC2)CC1 : < 50 nM
CN1CCN(c2cc(Nc3cc(N4OCC[C@@H]4c4cc(F)cc(F)c4)ncn3)cc(C(C)(C)C#N)c2)CC1 : < 50 nM

Attention now turns to another entry.
Challenge: Which measured GI50 value corresponds to `COc1cc(Nc2cc(N3OCC[C@@H]3c3ccccc3)ncn2)ccc1N1CCC(N2CCN(C)CC2)CC1` ?
Response given: < 50 nM

----------
Field: GI50. Provide a value for each of the compounds that follow.
test system: Ba/F3 cells expressing EGFR Del19/C797S (EGFR DC); experiment: Proliferation inhibitory activity, Ba/F3 cells expressing EGFR Del19/C797S (CellTiter-Glo); format: cell-based; details: Mus musculus, BaF3, 72 hours of compound treatment

COc1cc(N2CCC(N3CCN(C)CC3)CC2)ccc1Nc1cc(N2OCC[C@@H]2c2cccc(C(=O)OC(C)C)c2)ncn1 [Example 100] : 50 to 500 nM
CN1C2CC1CN(c1ccc(Nc3cc(N4OCC[C@@H]4c4ccccc4)ncn3)cc1)C2 [Example 136] : < 50 nM
COc1cc(N2CCC(N3CCN(C)CC3)CC2)ccc1Nc1cc(N2OCC[C@@H]2c2cccc(C(F)F)c2)ncn1 [Example 184] : 50 to 500 nM
COc1cc(N2CCC(N3CCN(C)CC3)CC2)c(C(C)C)cc1Nc1cc(N2OCC[C@@H]2c2cccc(F)c2F)ncn1 [Example 142] : < 50 nM
COc1cc(N2CCC(N3CCN(C)CC3)CC2)ccc1Nc1cc(N2OCC[C@@H]2c2cncc(Cl)c2)ncn1 [Example 182] : < 50 nM
COc1cc(N2CCC(N3CCN(CCS(C)(=O)=O)CC3)CC2)ccc1Nc1cc(N2OCC[C@@H]2c2cccc(F)c2F)ncn1 [Example 237] : < 50 nM

Consider the record given below.
Challenge: # get_value(readout= GI50, system= Ba/F3 cells expressing EGFR Del19/C797S (EGFR DC)) for COc1cc(Nc2cc(N3OCC[C@@H]3c3ccc(F)cc3)ncn2)ccc1N1CCC(N2CCN(C)CC2)CC1 [Example 96]
Response given: < 50 nM

Recorded values, source patent US12534457B2.
